Below, each of the compounds is paired with its reported viability score value.
Test system: RAW-Dual (murine macrophage reporter line)
protocol description: viability score (confluency relative to resting cells, overnight) (fraction); higher = more viable, active = viable (0.7 or more)
condition notes: modulator concentration 10 µM
Keep the answer to the number alone.

Past entries and their recorded results:
O=[N+]([O-])c1cc(C(O)(C(F)(F)F)C(F)(F)F)cc([N+](=O)[O-])c1Cl = 0.996
CO[C@@]12[C@H](COC(N)=O)C3=C(C(=O)C(C)=C(N)C3=O)N1C[C@@H]1N[C@@H]12 = 0.644
CCOC(=O)c1c(C)nn(C2CCCCC2)c1N = 1.02
Cc1cccc(-c2nn3c(c2-c2ccnc4ccc(C(N)=O)cc24)CCC3)n1 = 0.99
C#CCN(C)Cc1ccccc1.Cl = 0.999

IN: GET /values?readout=viability score&item= CC1=CC(=NS(=O)(=O)c2ccc(C)cc2)C=C(Cl)C1=O
OUT: 0.89

IN: GET /values?readout=viability score&item= C=CC(=O)Nc1cccc(Oc2nc(Nc3ccc(N4CCN(C)CC4)cc3)nc3ccsc23)c1
OUT: 0.0526

IN: GET /values?readout=viability score&item= Cl.O=C1NCC2(CCN(CCc3ccccc3)CC2)O1
OUT: 0.816

IN: GET /values?readout=viability score&item= CC(C)NC(=O)CCn1c(=O)c2cc(Cl)ccc2n2c(SCc3ccc(F)cc3)nnc12
OUT: 0.964

IN: GET /values?readout=viability score&item= CC1CC(=CC=CN(C)C)C(=O)C(=CC=CN(C)C)C1 (configuration not stated)
OUT: 1

IN: GET /values?readout=viability score&item= CN(C)CC/C=C1/c2ccccc2Sc2ccc(Cl)cc21
OUT: 1.02

IN: GET /values?readout=viability score&item= CS(=O)(=O)O.O=C(NC1CCN(CCCCC2(C(=O)NCC(F)(F)F)c3ccccc3-c3ccccc32)CC1)c1ccccc1-c1ccc(C(F)(F)F)cc1
OUT: 0.258

IN: GET /values?readout=viability score&item= O=[N+]([O-])c1ccc(CSc2nc3cccnc3[nH]2)cc1
OUT: 1.01

IN: GET /values?readout=viability score&item= COc1ccc(N2CC(NC(=O)Nc3cccc(Cl)c3C)CC2=O)cc1OC (configuration not stated)
OUT: 0.973

IN: GET /values?readout=viability score&item= C[C@@H](O)[C@H]1C(=O)N2C(C(=O)O)=C(SCCNC=N)C[C@H]12.O
OUT: 0.999

IN: GET /values?readout=viability score&item= CN(C)CCOC(C)(c1ccccc1)c1ccccn1.O=C(O)CCC(=O)O (configuration not stated)
OUT: 1

IN: GET /values?readout=viability score&item= Cc1cc(=O)[nH]c(-n2nc(C)c(CCC(=O)N3CCN(C)CC3)c2C)n1
OUT: 0.994

IN: GET /values?readout=viability score&item= CC(=O)SCC(Cc1ccccc1)C(=O)NCC(=O)OCc1ccccc1 (configuration not stated)
OUT: 1

IN: GET /values?readout=viability score&item= COc1ccc(NC(=O)CCn2nc(C)nc2C)cc1
OUT: 1

IN: GET /values?readout=viability score&item= CCn1c(=O)c2c(nc(/C=C/c3ccc(OC)c(OC)c3)n2C)n(CC)c1=O
OUT: 0.986

IN: GET /values?readout=viability score&item= COC(=O)c1ccc(CN2CCc3ccccc3C2)cc1
OUT: 0.938

IN: GET /values?readout=viability score&item= c1ccc2nc3c(cc(N4CCOCC4)c4ccccc43)nc2c1
OUT: 1.01

====

Tested on: RAW-Dual (murine macrophage reporter line)
protocol description: NF-kB reporter (SEAP) activity fold change vs agonist alone; higher = enhanced NF-kB activity
condition notes: modulator concentration 10 µM; agonist: CpG ODN 1826 0.5 ug/mL
Kindly note that classification relies on NF-kB reporter with these boundaries: c1: < 0.9; c2: ≥ 0.9 and < 1; c3: ≥ 1

CN1CCC[C@@H]1CCO[C@](C)(c1ccccc1)c1ccc(Cl)cc1.O=C(O)/C=C/C(=O)O = c3
Cc1cc(C)c(-c2csc(NC(=O)C=Cc3cccs3)n2)c(C)c1 = c1
N#Cc1c(NC(=O)c2cccc3ccccc23)sc2c1CCCC2 = c3

IN: Which NF-kB reporter category applies to CCCCCCCCCCC[C@@H](C[C@@H]1OC(=O)[C@H]1CCCCCC)OC(=O)[C@H](CC(C)C)NC=O here?
OUT: c3

IN: Which NF-kB reporter category applies to CCOc1ccc(CC(=O)NC2(c3nc(-c4ccccc4)no3)CCCCC2)cc1OCC here?
OUT: c1

IN: Which NF-kB reporter category applies to c1ccc(-c2ccc(C(c3ccccc3)n3ccnc3)cc2)cc1 (configuration not stated) here?
OUT: c1

IN: Which NF-kB reporter category applies to N#Cc1cc(OC2CCSC2)nc2ccccc12 (configuration not stated) here?
OUT: c3

IN: Which NF-kB reporter category applies to Cc1cc(C)nc(NS(=O)(=O)c2ccc(NC(=O)C=Cc3cccc4ccccc34)cc2)n1 here?
OUT: c3

IN: Which NF-kB reporter category applies to O=[N+]([O-])c1ccc(-n2cccc2C=NNc2nc(N3CCOCC3)nc(N3CCOCC3)n2)cc1 here?
OUT: c2

====

Test system: RAW-Dual (murine macrophage reporter line)
protocol description: NF-kB reporter (SEAP) activity fold change vs agonist alone; higher = enhanced NF-kB activity
condition notes: modulator concentration 10 µM; agonist: CpG ODN 1826 0.5 ug/mL
Tick Condition met if NF-kB reporter is 1 or greater. Tick Condition not met if NF-kB reporter is less than 1.

COc1ccc(-c2cc(=O)c3c(O)cc(O)cc3o2)cc1O = Condition met
CCCOc1cccc(C(=O)Nc2scc(-c3ccccc3Cl)c2C(=O)OC)c1 = Condition not met
O=S(=O)(Cc1cccc(F)c1)N1C2CCC1CC(Oc1cccnc1)C2 (stereo not given) = Condition met
COc1cc2nc(N(C)CCCNC(=O)C3CCCO3)nc(N)c2cc1OC (stereo not given) = Condition met

Then this molecule:
IN: Could you verify whether the entry CC(=O)OC1(C(C)=O)CCC2C3CC(C)C4=CC(=O)CCC4(C)C3CCC21C (stereo not given) shows NF-kB reporter of no less than 1?
OUT: Condition met

====

System: RAW-Dual (murine macrophage reporter line)
protocol description: NF-kB reporter (SEAP) activity fold change vs agonist alone; higher = enhanced NF-kB activity
condition notes: modulator concentration 10 µM; agonist: MPLA […]
Tick fulfilled if NF-kB reporter is 1 or greater. Tick not fulfilled if NF-kB reporter is less than 1.

Recorded results for 3 compounds are shown here.
O=C(c1ccc(F)cc1)N(C1CCCCC1)C1CCCCC1 = fulfilled
O=[N+]([O-])c1ccc(-n2cccc2C=NNc2nc(N3CCCCC3)nc(N3CCCCC3)n2)cc1 = not fulfilled
Cc1cnc(NC(=O)C2=C(O)c3ccccc3S(=O)(=O)N2C)s1 = not fulfilled

IN: Could you verify whether the entry O=C(NC1CCN(c2ncnc3c2CCCC3)CC1)c1ccc(=O)[nH]c1 shows NF-kB reporter of no less than 1?
OUT: not fulfilled

IN: Could you verify whether the entry O=C(CCCC(=O)Nc1ccc(Cl)c(Cl)c1)Nc1ccc(Cl)c(Cl)c1 shows NF-kB reporter of no less than 1?
OUT: not fulfilled

IN: Could you verify whether the entry COc1cc2c3cc1Oc1cc(ccc1O)OC1c4c(cc(OC)c(O)c4Oc4ccc(cc4)CC3N(C)CC2)CCN1C (stereo not given) shows NF-kB reporter of no less than 1?
OUT: fulfilled

====

Below, each of the compounds is paired with its reported IRF reporter value.
Tested on: RAW-Dual (murine macrophage reporter line)
protocol description: IRF reporter (Lucia luciferase) activity fold change vs agonist alone; higher = enhanced IRF activity
condition notes: modulator concentration 10 µM; agonist: 3'3'-cGAMP 10 ug/mL
Keep the answer to the number alone.

IN: GET /values?readout=IRF reporter&item= C=CCc1ccc(OCCCOc2ccccc2C(C)=O)c(OC)c1
OUT: 0.66

====

System: RAW-Dual (murine macrophage reporter line)
protocol description: viability score (confluency relative to resting cells, overnight) (fraction); higher = more viable, active = viable (0.7 or more)
condition notes: modulator concentration 10 µM
Below, each of the compounds is paired with its reported viability score value.
Keep the answer to the number alone.

Past entries and their recorded results:
COC(=O)C1=C(C)NC(C)=C(C(=O)OC)C1c1c(F)cccc1Cl = 0.979
CC(C(=O)O)c1ccc(C(=O)c2cccs2)cc1 (stereo unspecified) = 1.01
COc1cccc(-c2cc(C(=O)N3CCC(Oc4cc(C)n(C)c(=O)c4)CC3)n(C)n2)c1 = 1

IN: GET /values?readout=viability score&item= CC(C)(O)CNc1nc(Nc2ccnc(C(F)(F)F)c2)nc(-c2cccc(C(F)(F)F)n2)n1
OUT: 0.999

IN: GET /values?readout=viability score&item= COc1ccc2sc(C)[n+](CCCS(=O)(=O)[O-])c2c1
OUT: 1

IN: GET /values?readout=viability score&item= COc1ccc(C(C)NC(=O)c2[nH]nnc2-c2ccc(F)cc2)cc1 (stereo unspecified)
OUT: 0.997

Source of measurements: the supplement of paper PMC10646978
